FYI, the data here is from patent US10034886B2.

target: GLP-1R (Homo sapiens); construct: host or cells: GLP-1R CRE-bla CHO-K1 cells; assay: EC20 GLP-1(9-36) PAM cAMP assay: dose response of compound in the presence of fixed concentration of GLP-1(9-36); format: cell-based; details: GLP-1R CRE-bla CHO-K1 cells, compound dose response with fixed concentration of GLP-1(9-36), read-out: EC20 GLP-1(9-36) PAM EC50
Sequence (P43220 24-463): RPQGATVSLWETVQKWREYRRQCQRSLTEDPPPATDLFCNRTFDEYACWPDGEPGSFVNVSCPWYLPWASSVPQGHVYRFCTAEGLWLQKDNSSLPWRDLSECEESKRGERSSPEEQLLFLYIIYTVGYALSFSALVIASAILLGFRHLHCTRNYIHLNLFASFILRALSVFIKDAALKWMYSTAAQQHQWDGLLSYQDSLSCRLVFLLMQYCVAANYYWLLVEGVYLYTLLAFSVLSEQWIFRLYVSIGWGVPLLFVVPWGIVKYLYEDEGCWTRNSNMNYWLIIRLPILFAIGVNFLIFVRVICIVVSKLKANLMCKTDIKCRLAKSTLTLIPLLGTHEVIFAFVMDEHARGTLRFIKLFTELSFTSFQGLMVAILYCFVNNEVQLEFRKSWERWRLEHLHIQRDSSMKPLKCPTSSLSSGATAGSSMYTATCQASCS
Sequence (P01275 100-127 partner limits assumed): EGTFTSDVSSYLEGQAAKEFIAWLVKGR
pEC50: −log10 of the molar value.
The reader will find reported pEC50 values listed item by item below.

Guide cases for pEC50, answers given:
CCCc1ccc(CC2CN(c3cnc(-c4ccc(CC(NC(=O)c5ccc(C(C)(C)C)s5)C(=O)N5CC(C(=O)O)C5)cc4)nc3)C2)cc1 (centres unmarked) [Compound 1509] ... 5.00 to 5.30
CCC[C@H]1CC[C@H](C2CCN(c3cnc(-c4ccc(C[C@H](NC(=O)c5ccc(C)s5)C(=O)N5CC(C(=O)O)C5)cc4)nc3)CC2)CC1 [Compound 1530] ... 5.60 to 6.10
CCCc1ccc(N2CCN(c3cnc(-c4ccc(CC(NC(=O)c5ccc(C(C)(C)C)s5)C(=O)N5CC(C(=O)O)C5)cc4)nc3)C(=O)C2)cc1 (racemic) [Compound 1411] ... 5.60 to 6.10

INPUT: GET /values?readout=pEC50&system=GLP-1R (Homo sapiens)&item= CCC[C@H]1CC[C@H](C2CCN(c3cnc(-c4ccc(C[C@H](NC(=O)c5ccc(CC)cc5)C(=O)N5CC(C(=O)O)C5)cc4)nc3)CC2)CC1 [Compound 1529]
OUTPUT: > 6.10

INPUT: Try CC(C)(C)c1ccc(C(=O)N[C@@H](Cc2ccc(-c3ncc(-c4ccc(-c5ccc(OC(F)(F)F)cc5)cc4)cn3)cc2)C(=O)O)s1 [Compound 1356] next.
OUTPUT: > 6.10

INPUT: Try Cc1cccc(C2CCN(c3cnc(-c4ccc(C[C@H](NC(=O)c5ccc(C(C)(C)C)s5)C(=O)N5CC(C(=O)O)C5)cc4)nc3)CC2)c1 [Compound 1476] next.
OUTPUT: > 6.10

INPUT: Try CC(C)c1ccc(-c2ccc(-c3cnc(-c4ccc(C[C@H](NC(=O)c5ccc(C(C)(C)C)s5)C(=O)O)cc4)nc3)c(F)c2)cc1 [Compound 1359] next.
OUTPUT: 5.60 to 6.10

INPUT: Try CC(C)CCCOc1ccc(-c2cnc(-c3ccc(C[C@H](NC(=O)c4ccc(OC(C)C)cc4)C(=O)N4CC(C(=O)O)C4)cc3)nc2)cc1 [Compound 1238] next.
OUTPUT: 5.60 to 6.10

INPUT: Try CC(C)c1ccc(-c2ccc(-c3cnc(-c4ccc(C[C@H](NC(=O)c5ccc(C(C)(C)C)s5)C(=O)N5CC(C(=O)O)C5)cc4)nc3)c(F)c2)cc1 [Compound 1220] next.
OUTPUT: > 6.10

INPUT: Try CCC[C@H]1CC[C@H](C2CCN(c3cnc(-c4ccc(C[C@H](NC(=O)c5ccc(C(C)(C)C)s5)C(=O)N5CC(F)(C(=O)O)C5)cc4)nc3)CC2)CC1 [Compound 1451] next.
OUTPUT: 5.60 to 6.10

INPUT: Try CCC[C@H]1CC[C@H](C2CCN(c3cnc(-c4ccc(C[C@H](NC(=O)c5ccc(C(C)(C)C)s5)C(=O)N[C@H](C)C(=O)O)cc4)nc3)CC2)CC1 [Compound 1437] next.
OUTPUT: > 6.10
